System: MS2 coat protein
assay-procedure: apparent KD of MS2 coat protein, switch OFF state (with FMN for OFF switches, without FMN for ON switches); designed switch direction (-1 OFF switch, 1 ON switch): -1; higher = weaker reporter binding
assay-context: FMN input: 0 or 200 uM; Eterna round: R93 (includes R88 designs)
// label = TRUE if apparent KD of MS2 coat protein is not less than 40 nM, otherwise FALSE

| monomer-sequence | class-assignment |
| --- | --- |
| ACGUACUCAGGAUAUACGAACAUGUCAAAAGACGUGAAGGGACAUGAGGAUCACCCAUGUAGAAGGGAGUACGA [Mat - Exclusion 2 - JL mod - D6] | TRUE |
| CAAAGGUGAGGAUAUACAAAACUAUGACGAAAGUCAUAAAAACAUGAGGAUCACCCAUGUAGAAGGCACCACAA [E2 64% 2] | FALSE |
| GGAAAGCAAGGAUAUACAAACAAACAAACAAACAAAAGGGAACAUGAGGAUCACCCAUGUAGAAGGUGCAAACA [Exclusion 2 XX] | FALSE |

Query: Say whether AAGAAACAUGAGGAUCACCCAUGUGAGGAUAUCCAAGAAAGAAAGAAAGAAAGAAGAAGGAGAAGGCACAAAGG [Quintus Ostorius Scapula] shows apparent KD of MS2 coat protein of 40 nM or more.
Result: TRUE

Query: Determine whether measured apparent KD of MS2 coat protein meets or exceeds 40 nM for AAUAAGUGAGGAUAUGUGAAUAGUAGAUAAGAUUCCCUAAAACAGAAGGCACAUGAGGAUCACCCAUGUAAAUA [JR_Exc004_Sub008]
Result: FALSE

Query: Textbook exercise: given the entry AAGAGUAGAGGAUAUACAUAAAAAGAGUCGAAAGACUCGGGACAUGAGGAUCACCCAUGUAGAAGGCUACUCAA [Hyphema Seclusion Mod 62% 4] , state whether its apparent KD of MS2 coat protein is greater than or equal to 40 nM.
Result: TRUE

meta.source: the supplement of paper PMC9170038
